# System: rice (Oryza sativa)
# Assay Method Text: Test B flooded paddy test, rice
# Format: in vivo
# Experimental Setup: Flood, 250 g ai/ha, applied to paddy water, 2-leaf stage, visual evaluation after 13 to 15 d
# Plant response rating, Rice (0 to 100 scale, 0 is no effect, 100 is complete control) annotations

Exam item: Give the measured Plant response rating, Rice (0 to 100 scale, 0 is no effect, 100 is complete control) for CC(Nc1ncc(C(F)(F)F)c(N)n1)c1csc2ccccc12 (centres unmarked) [Compound 40]
Marked response: 0

Exam item: Give the measured Plant response rating, Rice (0 to 100 scale, 0 is no effect, 100 is complete control) for CC(Nc1ncc(C(F)(F)F)c(N)n1)c1cc2c(Cl)cccc2o1 (centres unmarked) [Compound 100]
Marked response: 0

Exam item: Give the measured Plant response rating, Rice (0 to 100 scale, 0 is no effect, 100 is complete control) for C[C@@H](Nc1ncc(C(F)(F)F)c(N)n1)c1coc2cc(Cl)ccc12 [Compound 55]
Marked response: 0

Exam item: Give the measured Plant response rating, Rice (0 to 100 scale, 0 is no effect, 100 is complete control) for Nc1nc(NC(c2cc3ccccc3s2)C2CC2)ncc1C(F)(F)F (racemic) [Compound 94]
Marked response: 10

Exam item: Give the measured Plant response rating, Rice (0 to 100 scale, 0 is no effect, 100 is complete control) for Cc1cc(F)cc(OCC(C)Nc2ncc(C(F)(F)F)c(N)n2)c1 (centres unmarked) [Compound 39]
Marked response: 0

Exam item: Give the measured Plant response rating, Rice (0 to 100 scale, 0 is no effect, 100 is complete control) for C[C@@H](Nc1ncc(C(F)(F)F)c(N)n1)c1cc2ccccc2n1C [Compound 98]
Marked response: 0

Exam item: Give the measured Plant response rating, Rice (0 to 100 scale, 0 is no effect, 100 is complete control) for CC(Nc1ncc(C(F)(F)F)c(N)n1)c1cc2ccccc2s1 (racemic) [Compound 16]
Marked response: 0

Exam item: Give the measured Plant response rating, Rice (0 to 100 scale, 0 is no effect, 100 is complete control) for CC[C@@H](Nc1ncc(C(F)(F)F)c(N)n1)c1cc2ccc(F)cc2s1 [Compound 48]
Marked response: 0

Exam item: Give the measured Plant response rating, Rice (0 to 100 scale, 0 is no effect, 100 is complete control) for C[C@@H](Nc1nc(N)c(C(F)(F)F)c(C(F)F)n1)c1cc2ccccc2s1 [Compound 109]
Marked response: 20

Exam item: Give the measured Plant response rating, Rice (0 to 100 scale, 0 is no effect, 100 is complete control) for C[C@H](Nc1ncc(C(F)(F)F)c(N)n1)C1Cc2ccccc2C1 [Compound 12]
Marked response: 0

Exam item: Give the measured Plant response rating, Rice (0 to 100 scale, 0 is no effect, 100 is complete control) for Cc1nc(NC(C)c2cc3ccccc3s2)nc(N)c1C(F)(F)F (centres unmarked) [Compound 105]
Marked response: 0

* * *

# Test system: foxtail, giant (Setaria faberii)
# Assay Method Text: Test A postemergence, giant foxtail
# Assay type: in vivo
# Experimental Setup: 125 g ai/ha, 0 to 100 scale, 0 no effect, 100 complete control
Measure Name: Plant response rating, Foxtail, Giant
Answer using only a numeral; do not append any unit.

Cc1ccc2c([C@@H](Nc3ncc(C(F)(F)F)c(N)n3)C3CC3)coc2c1 = 0
CC[C@H](Nc1ncc(C(F)(F)F)c(N)n1)c1cc2ccc(F)cc2o1 = 0
CC(Nc1ncc(C(F)(F)F)c(N)n1)c1coc2cc(F)ccc12 (racemic) = 20

// moving on: another record for Plant response rating, Foxtail, Giant
Exam item: Give the measured Plant response rating, Foxtail, Giant for Cc1cccc2oc(C(C)Nc3ncc(C(F)(F)F)c(N)n3)cc12 (stereo not shown)
Marked response: 10
